Target Entity: T1, recombinant human regenerating islet-derived protein 1α (REG1A) (human, UniProt P05451 23-166, limits assumed)
T1 construct: also called recombinant human REG1A; recombinant REG1A
T1 sequence (looked up): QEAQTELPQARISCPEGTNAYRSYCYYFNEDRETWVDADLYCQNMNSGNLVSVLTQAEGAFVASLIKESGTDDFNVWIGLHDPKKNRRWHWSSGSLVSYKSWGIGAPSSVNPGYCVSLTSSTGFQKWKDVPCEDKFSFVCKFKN
Assay Overview: sandwich ELISA; capture 12F12A10; REG1A 3.70 ng/mL
Assay Endpoint: OD value (OD)
State the answer as a number, implicitly in OD.

GET /values?readout=OD value&item= antibody 4H8F1 (antibody, V domains shown, Mouse monoclonal from hybridoma, stated mouse IgG1/Kappa; also called 4H8F1-biotin; Antibody 1) VH: QVTLKESGPGILQPSQTLSLTCSFSGFSLSTSGMSVGWIRQPSGKGLEWLAHIWWNDDKFYNPALKSRLTISKDTSKNQIFLKIASVVTADSATYYCARIEEGWFAYWGQGTLVTVST VL: SIVMTQTPKFLLVSVGDRVTITCKASQTMSNDVAWYQQKPGQSPKLLIYYASNRYTGVPDRFTGSGYGTDFTFTISTVQAEDLAVYFCQQDYSSPLTFGAGTKLELKR
2.42
